Reported values of inhibition for individual entries
# System: 17-beta-hydroxysteroid dehydrogenase type 1 (Homo sapiens) (UniProt P14061)
# Sequence (P14061 whole entry): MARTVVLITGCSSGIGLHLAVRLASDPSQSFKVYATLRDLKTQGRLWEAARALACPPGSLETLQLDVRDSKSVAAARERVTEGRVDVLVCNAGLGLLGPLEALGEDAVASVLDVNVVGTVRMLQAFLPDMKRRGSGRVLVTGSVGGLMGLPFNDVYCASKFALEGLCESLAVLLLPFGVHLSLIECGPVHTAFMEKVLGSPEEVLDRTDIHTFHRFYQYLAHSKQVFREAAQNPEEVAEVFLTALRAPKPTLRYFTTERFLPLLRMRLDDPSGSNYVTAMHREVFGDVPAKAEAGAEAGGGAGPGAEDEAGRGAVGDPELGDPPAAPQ
# Test Name: Inhibitory activity at 10 uM against 17-beta-hydroxysteroid dehydrogenase type 1 expressed in T47D human breast cancer cells using 2 nM [3H]estrone
# Type: cell-based

Compound	System	inhibition
C[C@]12CCC3c4ccc(O)cc4CCC3C1Cc1c2n[nH]c1C(=O)NCC1CCCO1 (some centres not stated)	17-beta-hydroxysteroid dehydrogenase type 1 (Homo sapiens) (UniProt P14061)	87%
CN1CCN(CNC(=O)c2[nH]nc3c2CC2C4CCc5cc(O)ccc5C4CC[C@]32C)CC1 (some centres not stated)	17-beta-hydroxysteroid dehydrogenase type 1 (Homo sapiens) (UniProt P14061)	50%
COCCn1ncc2c1[C@@]1(C)CCC3c4ccc(O)cc4CCC3C1C2 (some centres not stated)	17-beta-hydroxysteroid dehydrogenase type 1 (Homo sapiens) (UniProt P14061)	83%
C[C@]12CCC3c4ccc(O)cc4CCC3C1Cc1c2n[nH]c1C(=O)NCc1cccnc1 (some centres not stated)	17-beta-hydroxysteroid dehydrogenase type 1 (Homo sapiens) (UniProt P14061)	92%
C[C@]12CCC3c4ccc(O)cc4CCC3C1Cc1c(CO)n[nH]c12 (some centres not stated)	17-beta-hydroxysteroid dehydrogenase type 1 (Homo sapiens) (UniProt P14061)	94%
C[C@]12CCC3c4ccc(O)cc4CCC3C1Cc1c[nH]nc12 (some centres not stated)	17-beta-hydroxysteroid dehydrogenase type 1 (Homo sapiens) (UniProt P14061)	97%
C[C@]12CC[C@@H]3c4ccc(O)cc4CCC3[C@@H]1C/C(=N/O)C2=O (single isomer, unassigned)	17-beta-hydroxysteroid dehydrogenase type 1 (Homo sapiens) (UniProt P14061)	95%
